MEASURED TARGET: GST-MPK6 (Arabidopsis thaliana, UniProt Q39026 1-395)
Sequence (Q39026 whole entry): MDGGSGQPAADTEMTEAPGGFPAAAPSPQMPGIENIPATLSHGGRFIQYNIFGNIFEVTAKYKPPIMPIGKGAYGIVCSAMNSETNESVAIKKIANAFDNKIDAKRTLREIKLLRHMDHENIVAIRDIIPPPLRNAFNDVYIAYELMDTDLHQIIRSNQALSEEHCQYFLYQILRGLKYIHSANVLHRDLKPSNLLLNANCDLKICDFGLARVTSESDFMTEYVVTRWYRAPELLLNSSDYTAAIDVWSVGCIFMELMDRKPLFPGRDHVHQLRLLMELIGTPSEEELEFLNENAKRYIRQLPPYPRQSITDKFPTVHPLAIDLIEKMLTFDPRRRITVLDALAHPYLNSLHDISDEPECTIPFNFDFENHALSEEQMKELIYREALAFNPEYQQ
ASSAY PROCEDURE: BLI
Ends that are not written are not given here.
RECORDED ENDPOINT: Kd (µM)

INSERT INTO assay_data (binder, recorded_endpoint, result_number) VALUES
  ('ASSGAQPTLFQKRAAMRQ (also: biotinylated, position not given here) [KRAAM motif peptide, biotinylated]', 'Kd', 2.4),
  ('GGFVGNRAKVLKPLEVL (also: biotinylated, position not given here) [Docking motif peptide, biotinylated]', 'Kd', 2.3);
